B1: HDAC6 (parent)
chain: QEGLLDRCVSFQARFAEKEELMLV

# Variants of: B1
# ASSAY_EXPLANATION: protein stability index of a GFP-peptide fusion (GPS, HEK-293T) (PSI 1-6); higher = more stable;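 also: lentivirally expressed fusions sorted by FACS into six bins by GFP to DsRed ratio, PSI derived from sequencing read proportions per bin multiplied by bin number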
# ASSAY_CONTEXT: c terminus: a fixed tail appended
Listed here: items and their measured protein stability index.
MEASURED_ENDPOINT: protein stability index

variant_code=E20K assay_result=1.96
variant_code=M22A assay_result=2.93
variant_code=Q1P assay_result=2.13
variant_code=F15C assay_result=2.36
variant_code=M22Q assay_result=2.81
variant_code=D6K assay_result=2.69
variant_code=G3A assay_result=1.89
variant_code=Q12G assay_result=2.77
variant_code=E2I assay_result=2.12
variant_code=L21Q assay_result=2.88
variant_code=R14T assay_result=2.14
variant_code=A13W assay_result=2.2
variant_code=G3I assay_result=1.95
variant_code=Q1M assay_result=1.94
variant_code=E2Y assay_result=1.8
variant_code=L4R assay_result=1.79
variant_code=S10P assay_result=1.99
variant_code=R7A assay_result=2.74
variant_code=E17V assay_result=1.21
variant_code=Q1T assay_result=1.77
variant_code=V9L assay_result=1.74
variant_code=L21K assay_result=3.17
variant_code=R14E assay_result=2.57
variant_code=E17D assay_result=2.14
variant_code=F15L assay_result=2.23
variant_code=A13Q assay_result=2.08
variant_code=R14G assay_result=2.07
variant_code=R14C assay_result=2.21
variant_code=V24S assay_result=3.59
variant_code=E19F assay_result=1.98
variant_code=D6W assay_result=2.38
variant_code=A13F assay_result=2.2
variant_code=V24D assay_result=4.32
variant_code=F11H assay_result=2.37
variant_code=L4A assay_result=1.62
variant_code=F11P assay_result=2.73
variant_code=Q12S assay_result=1.6
variant_code=S10R assay_result=2.37
variant_code=S10F assay_result=1.83
variant_code=L21P assay_result=3.29
variant_code=Q1N assay_result=1.91
variant_code=V24K assay_result=3.74
variant_code=L4S assay_result=1.75
variant_code=R14H assay_result=2.27
variant_code=D6P assay_result=1.38
variant_code=Q12F assay_result=1.69
